Assay: HCT116 colon cancer cell growth inhibition, primary screen, CellTiter-Glo luminescence, NPC library (AID 1117342)
Conditions: at 20 µM (top of the series)
Active and inactive are the calls of the source.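 The calls were made as follows: active = compounds that lower survival of HCT116 colon cancer cells in the luminescence readout, no numeric limit stated; inactive = the rest.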
Reply using exactly one outcome from Yes (active), No (inactive)

compound: C=CCNc1nc(NCC=C)nc(N2CCN(C(c3ccc(F)cc3)c3ccc(F)cc3)CC2)n1
assigned_class: No
//
compound: CCCCNC(=O)NS(=O)(=O)c1ccc(N)cc1
assigned_class: No

Prompt: Just curious, what result did Nc1ncn([C@@H]2O[C@H](CO)[C@@H](O)[C@H]2O)c(=O)n1 get here?
Response: Yes

Prompt: Just curious, what result did COc1ccccc1OCC1CNC(=O)O1 (stereo unspecified) get here?
Response: No

Prompt: Just curious, what result did CCOC(=O)c1cccnc1 get here?
Response: No

Prompt: Just curious, what result did CC(C)=CCCC(C)=CCCC(C)=CCCC(C)=CCC1=C(C)C(=O)c2ccccc2C1=O get here?
Response: No

Prompt: Just curious, what result did O=C(CCN1CCC(c2ccccc2)C1)c1ccc2c(c1)OCCO2 (stereo unspecified) get here?
Response: No

Prompt: Just curious, what result did CC(C)(C)c1ccc(C(=O)CCCCl)cc1 get here?
Response: No

Prompt: Just curious, what result did CCCCCCCCCCCCCC[N+](C)(C)C get here?
Response: Yes

Prompt: Just curious, what result did CCCN1C[C@H](CSC)C[C@@H]2c3cccc4[nH]cc(c34)C[C@H]21 get here?
Response: No

Prompt: Just curious, what result did Fc1ccc(C(c2ccc(F)cc2)N2CCNCC2)cc1 get here?
Response: Yes

Prompt: Just curious, what result did CCOC(=O)c1cc(=O)c2c(OCC(COc3cccc4oc(C(=O)OCC)cc(=O)c34)OC(=O)[C@@H](N)CCCCN)cccc2o1 get here?
Response: No

Prompt: Just curious, what result did COc1cc2c(cc1OC)C(C(C(=O)N(CCc1ccc(OC)c(OC)c1OC)CCc1ccc(OC)c(OC)c1OC)c1ccccc1)=NCC2 (stereo unspecified) get here?
Response: Yes

Prompt: Just curious, what result did Cc1nc2n(c(=O)c1CCN1CCC(C(=O)c3ccc(F)cc3)CC1)CCS2 get here?
Response: Yes

Prompt: Just curious, what result did CCC(C)(C)C(=O)O[C@H]1C[C@@H](C)C=C2C=C[C@H](C)[C@H](CC[C@@H]3C[C@@H](O)CC(=O)O3)[C@H]21 get here?
Response: Yes

Prompt: Just curious, what result did O=S(O)CO get here?
Response: No

----------
Experiment: modulators of glucocorticoid suppression of NF-kB, cell-based, luciferase, IL-1B stimulus, dexamethasone (AID 624486);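 also: 100% = mean signal of vehicle control wells on the plate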
Settings: NF-kB luciferase reporter, IL-1B + dexamethasone, luminescence; actives lie on both sides, concentration not given here
property: percent of negative control (+Dex) (%)
Supply the numeric figure in %, leaving out any unit text.

Prompt: Field request: percent of negative control (+Dex) | item: COc1cc(Nc2nccc(-c3cnn4ncccc34)n2)cc(OC)c1
Response: 29

----------
Recorded viability decrease (inhibition) for the following compounds
Experiment: decreased DLD-1 cellular survival, CellTiter-Glo luminescent readout, NPC compound collection, primary HTS (AID 1117346)
Conditions: DLD-1 viability, CellTiter-Glo luminescence; at 20 µM (top of the series)
Supply the numeric figure in %, leaving out any unit text.

compound: O=C(O)Cc1ccccc1Oc1ccc(Cl)cc1Cl
viability decrease (inhibition) (%): 5.9

compound: Nc1nc2ccccc2n1Cc1ccc(F)cc1
viability decrease (inhibition) (%): 43

compound: O=C(O)C(Cc1cc(I)c(O)c(I)c1)c1ccccc1 (stereo not drawn)
viability decrease (inhibition) (%): 14.4

compound: CCCCCCCCCCCCCC(=O)OC(C)C
viability decrease (inhibition) (%): 24.3

compound: CCOC(=O)OCC/C(SC(=O)OCC)=C(\C)N(C=O)Cc1cnc(C)nc1N
viability decrease (inhibition) (%): -10.1

Prompt: Field request: viability decrease (inhibition) | item: CC(C)(C)CC(C)(C)c1ccc(O)c(-n2nc3ccccc3n2)c1
Response: 22.1

Prompt: Field request: viability decrease (inhibition) | item: COc1ccc(/C=C/C(=O)c2ccc(OC)cc2OC)cc1
Response: 81.6

Prompt: Field request: viability decrease (inhibition) | item: COc1cc2nc(N(C)CCCNC(=O)C3CCCO3)nc(N)c2cc1OC (stereo not drawn)
Response: 0.1

Prompt: Field request: viability decrease (inhibition) | item: CCN(CC)CCNC(=O)COc1ccc(Cl)cc1
Response: 0.6

Prompt: Field request: viability decrease (inhibition) | item: NC(CSCC(=O)O)C(=O)O (stereo not drawn)
Response: -5.3

Prompt: Field request: viability decrease (inhibition) | item: NS(=O)(=O)c1cc2c(cc1C(F)(F)F)NC(Cc1ccccc1)NS2(=O)=O (stereo not drawn)
Response: -18.1

Prompt: Field request: viability decrease (inhibition) | item: COc1ccnc2c1CCCCC2S(=O)c1nc2ccccc2[nH]1 (stereo not drawn)
Response: 11.3

----------
Assay: fluorescence interference in NS3h assay format, artefact control for HCV NS3 helicase inhibitor project, biochemical, NIH Clinical Collection (AID 743272);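 also: HCV NS3 helicase with a Cy5 labelled single stranded DNA probe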
Details: fluorescence interference counterscreen, active compounds read low
Active and inactive are the calls of the source. How the calls were made is not given here.
property: fluorescence ratio

Check out these entries, answers already filled in.
compound: CCc1cc(C(N)=S)ccn1
result: 1.01 (inactive)
--
compound: CCCNCC(O)COc1ccccc1C(=O)CCc1ccccc1 (centres undefined)
result: 0.99 (inactive)
--
compound: C[C@]12C=CC(=O)C=C1CC[C@@H]1[C@@H]2C(=O)C[C@@]2(C)[C@H]1CC[C@]2(O)C(=O)CO
result: 0.95 (inactive)
--
compound: O=c1n(CCCN2CCN(c3cccc(Cl)c3)CC2)nc2ccccn12
result: 0.97 (inactive)
--
compound: O=c1[nH]cc(F)c(=O)[nH]1
result: 0.92 (inactive)
--
compound: CC1(C)O[C@@H]2[C@@H](CO[C@@]3(COS(N)(=O)=O)OC(C)(C)O[C@@H]23)O1
result: 1.02 (inactive)
--
compound: CCC1(c2ccccc2)C(=O)NCNC1=O
result: 0.97 (inactive)
--
compound: CC(=O)Nc1nnc(S(N)(=O)=O)s1
result: 0.98 (inactive)
--
compound: O=C1[C@H](CC[C@H](O)c2ccc(F)cc2)[C@@H](c2ccc(O)cc2)N1c1ccc(F)cc1
result: 0.95 (inactive)
--
compound: COc1ccc2c(c1)c(CC(=O)O)c(C)n2C(=O)c1ccc(Cl)cc1
result: 1.01 (inactive)

Prompt: Field request: fluorescence ratio | item: NC(=O)N1c2ccccc2C=Cc2ccccc21
Response: 1.04 (inactive)

Prompt: Field request: fluorescence ratio | item: CC(=O)S[C@@H]1CC2=CC(=O)CC[C@]2(C)[C@H]2CC[C@@]3(C)[C@@H](CC[C@@]34CCC(=O)O4)[C@H]12
Response: 0.9 (inactive)

Prompt: Field request: fluorescence ratio | item: Cc1ncc([N+](=O)[O-])n1CC(C)O (centres undefined)
Response: 1 (inactive)

Prompt: Field request: fluorescence ratio | item: CCCN1C[C@H](CSC)C[C@@H]2c3cccc4[nH]cc(c34)C[C@H]21
Response: 1 (inactive)

----------
Assay: glucagon-like peptide 1 release enhancers, primary assay, NCI-H716 cell line, NPC library (AID 1117341)
Settings: NCI-H716 cells, at 10 µM, active compounds read high
property: GLP1 secretion stimulation (%)
Supply the numeric figure in %, leaving out any unit text.

input_smiles: CN(C)C(=O)Oc1ccc[n+](C)c1
units_text: %
GLP1 secretion stimulation: -3.2

Prompt: Field request: GLP1 secretion stimulation | item: CC(=O)O[C@H]1CC[C@@]2(C)C(=CC[C@@H]3[C@@H]2CC[C@]2(C)C(C(C)=O)=CC[C@@H]32)C1
Response: -2

Prompt: Field request: GLP1 secretion stimulation | item: C[C@@]12CCC[C@H]1[C@@H]1CC[C@H]3C[C@@H](O)CC[C@]3(C)[C@H]1CC2
Response: 4

Prompt: Field request: GLP1 secretion stimulation | item: O[C@@H]1CO[C@H]2[C@@H]1OC[C@@H]2O
Response: 1.1

----------
Assay: growth inhibition of GSK3B-pretreated HCT116 cells – cell-based, CellTiter-Glo, 0.2 to 20 µM (AID 1117336)
Conditions: HCT116 viability after GSK3B inhibitor, at 20 µM
Activity calls are given as the source filed them.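 How the source made its calls: active means compounds lowering colon cancer cell viability after pretreatment blocking the GSK3B kinase; inactive means the rest.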
Reply using exactly one outcome from active, inactive

compound: Cn1cnc([N+](=O)[O-])c1Sc1ncnc2nc[nH]c12
assigned_class: active
//
compound: CCc1cc(C(N)=S)ccn1
assigned_class: inactive
//
compound: CN(C)C(=O)Oc1ccc[n+](C)c1
assigned_class: inactive
//
compound: Cc1cccc(C)c1NC(=O)c1cc(S(N)(=O)=O)c(Cl)cc1O
assigned_class: inactive
//
compound: C#Cc1ccc(-c2ccccc2F)cc1
assigned_class: inactive
//
compound: NC(N)=NC(=O)c1nc(Cl)c(N)nc1N
assigned_class: inactive

Prompt: Just curious, what result did NC(CSCC(=O)O)C(=O)O (configuration not stated) get here?
Response: inactive
